melting point for assorted compounds
Value expressed in °C; do not type the unit.

Worked cases, answers included:
given smiles: O=C(O[C@H]1C[N+]2(CCOc3ccccc3)CCC1CC2)N(Cc1ccccc1)c1ccccc1.[Br-]
melting point / °C: 117

given smiles: C=CC[N+]12CCC(CC1)[C@@H](OC(=O)N(Cc1cccs1)c1ccccc1)C2.[Br-]
melting point / °C: 110

given smiles: O=C(O[C@H]1C[N+]2(CCCc3cccs3)CCC1CC2)N(Cc1cccs1)Cc1cccs1.[Br-]
melting point / °C: 143

given smiles: CCCCN(C(=O)O[C@H]1C[N+]2(CCCc3cccs3)CCC1CC2)c1ccccc1.[Br-]
melting point / °C: 127

given smiles: C[N+]12CCC(CC1)[C@@H](OC(=O)N(CCc1ccccc1)c1ccccc1)C2.[Br-]
melting point / °C: 203

QUERY: # get_value(readout='melting point', item= CCCCN(C(=O)O[C@H]1C[N+]2(CCCOc3ccc(F)cc3)CCC1CC2)c1ccccc1.[Cl-] )
RESULT: 126

QUERY: # get_value(readout='melting point', item= O=C(O[C@H]1C[N+]2(CCOc3ccccc3)CCC1CC2)N(Cc1cccs1)c1ccccc1.[Br-] )
RESULT: 133

QUERY: # get_value(readout='melting point', item= O=C(O[C@H]1C[N+]2(CCCc3cccs3)CCC1CC2)N(Cc1ccccc1)c1ccccc1.[Br-] )
RESULT: 95
